Molecular target: FYN (Homo sapiens)
Construct: purchased Caliper Life Sciences
Sequence (P06241 whole entry, species assumed): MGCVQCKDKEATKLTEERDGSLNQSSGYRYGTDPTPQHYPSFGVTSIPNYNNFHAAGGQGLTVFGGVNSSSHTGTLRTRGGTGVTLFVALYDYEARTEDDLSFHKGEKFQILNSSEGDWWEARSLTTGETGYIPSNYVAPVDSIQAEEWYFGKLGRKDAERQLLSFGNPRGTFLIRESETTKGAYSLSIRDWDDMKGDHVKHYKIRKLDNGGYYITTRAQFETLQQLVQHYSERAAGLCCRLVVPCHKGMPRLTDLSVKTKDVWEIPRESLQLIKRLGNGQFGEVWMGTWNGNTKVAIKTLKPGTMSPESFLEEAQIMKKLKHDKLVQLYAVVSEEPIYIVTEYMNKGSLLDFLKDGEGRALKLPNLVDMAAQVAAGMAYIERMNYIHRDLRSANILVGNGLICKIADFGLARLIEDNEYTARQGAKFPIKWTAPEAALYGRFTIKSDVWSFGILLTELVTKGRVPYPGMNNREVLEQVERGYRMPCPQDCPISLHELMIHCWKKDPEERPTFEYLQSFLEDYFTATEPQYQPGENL
Assay: Desktop Profiler kinase panel, FYN
Format: biochemical
Settings: 1 micromolar concentration of the compound
quantityMeasured: inhibition at 1 µM

These recorded examples may help you get a feel for the data.
[
  {
    "compoundString": "COc1ccc(Nc2ccnc3[nH]c(=O)c4ccccc4c23)cc1",
    "result": "70 to 90%"
  },
  {
    "compoundString": "O=c1[nH]c2nccc(Nc3ccccc3)c2c2ccccc12",
    "result": "> 90%"
  },
  {
    "compoundString": "COc1ccccc1Nc1ccnc2[nH]c(=O)c3ccccc3c12",
    "result": "70 to 90%"
  },
  {
    "compoundString": "O=c1[nH]c2nccc(NCc3ccccc3)c2c2ccccc12",
    "result": "70 to 90%"
  }
]

Shifting focus to the compound that follows.
Q: So what's the measured inhibition at 1 µM for this one? `COc1ccc(Oc2ccnc3[nH]c(=O)c4ccccc4c23)cc1`
Result: 70 to 90%

###

Readings of pIC50 for the listed molecules
Molecular target: GST-Aurora A (Homo sapiens)
Construct: N-terminal GST fusion with full length Aurora A (1-403 amino acids)
Assay: Aurora A IC50, Caliper LC3000 mobility shift assay
Settings: LC3000 method; 15 uM ATP (the KM value); read-out: Aurora Kinase A Activity (IC50)
pIC50: −log10 of the molar value.

[
  {
    "compoundString": "O=c1[nH]c2ncccc2c2cc(NCc3ccc(F)cc3)ccc12",
    "pIC50": "< 7.00"
  },
  {
    "compoundString": "O=c1[nH]c2ncccc2c2cc(NCc3cccc(F)c3)ccc12",
    "pIC50": "< 7.00"
  }
]

Q: State the recorded pIC50 for this entry: `O=C(Nc1ccc(Nc2ccnc3[nH]c(=O)c4ccccc4c23)cc1)C1CCCCC1`
Result: > 7.96

Q: Would you kindly share the measured pIC50 for `O=C(Nc1ccc(Nc2ccnc3[nH]c(=O)c4ccc(F)cc4c23)cc1)c1ccccc1` ?
Result: > 7.96

Q: Item under review: `CN1CCN(C(=O)c2ccc3c(=O)[nH]c4nccc(Nc5ccc(NC(=O)c6ccccc6)cc5)c4c3c2)CC1` . Reported pIC50?
Result: 7.00 to 7.96

Q: For `O=c1[nH]c2ncccc2c2cc(NCc3cccc([N+](=O)[O-])c3)ccc12` , what is its reported pIC50?
Result: < 7.00

Q: // query pIC50 value for entry `O=c1[nH]c2ncccc2c2cc(NCc3ccccc3C(F)(F)F)ccc12`
Result: 7.00 to 7.96

Q: Recorded pIC50 for `O=C(Nc1ccc(Nc2ccnc3[nH]c(=O)c4ccc(CO)cc4c23)cc1)c1ccccc1` , please?
Result: > 7.96

###

Target: AurA (Homo sapiens, UniProt O14965)
Construct: purchased Caliper Life Sciences
Assay: Desktop Profiler kinase panel, AurA
Type: biochemical
Conditions: 10 micromolar concentration of the compound; read-out: Percent Inhibition AurA
Measured inhibition at 10 µM of individual entries

// solved cases for inhibition at 10 µM follow
[
  {
    "compound": "O=c1[nH]c2nccc(NCc3ccccc3)c2c2ccccc12 [Example 96]",
    "result": "70 to 90%"
  },
  {
    "compound": "COc1ccccc1Nc1ccnc2[nH]c(=O)c3ccccc3c12 [Example 114]",
    "result": "> 90%"
  }
]

Please look at the following compound next.
Q: What does the data say about its inhibition at 10 µM? Entry: COc1ccc(Nc2ccc3c(=O)[nH]c4ncccc4c3c2)cc1 [Example 29]
Result: 70 to 90%

###

Target: LCK (Homo sapiens, UniProt P06239)
Construct: purchased Caliper Life Sciences
Sequence (P06239 whole entry, species assumed): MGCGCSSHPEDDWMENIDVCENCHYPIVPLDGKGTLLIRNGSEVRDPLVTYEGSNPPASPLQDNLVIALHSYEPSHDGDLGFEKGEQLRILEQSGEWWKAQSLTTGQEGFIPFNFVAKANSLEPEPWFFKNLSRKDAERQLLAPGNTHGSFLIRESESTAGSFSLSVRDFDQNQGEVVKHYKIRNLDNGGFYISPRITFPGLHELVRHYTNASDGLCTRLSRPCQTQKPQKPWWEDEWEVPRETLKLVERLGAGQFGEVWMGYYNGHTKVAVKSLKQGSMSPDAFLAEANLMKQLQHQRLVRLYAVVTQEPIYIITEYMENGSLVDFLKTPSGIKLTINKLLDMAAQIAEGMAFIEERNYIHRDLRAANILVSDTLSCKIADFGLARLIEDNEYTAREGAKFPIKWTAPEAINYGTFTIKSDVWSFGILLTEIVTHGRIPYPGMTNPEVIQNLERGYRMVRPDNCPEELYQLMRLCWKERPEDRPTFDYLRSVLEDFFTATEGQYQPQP
Assay: Desktop Profiler kinase panel, LCK
Type: biochemical
Conditions: 10 micromolar concentration of the compound; read-out: Percent Inhibition LCK
quantityMeasured: inhibition at 10 µM

Q: # query: inhibition at 10 µM of entry `O=c1[nH]c2nccc(Nc3ccc(Oc4ccccc4)cc3)c2c2ccccc12`
Result: 70 to 90%

###

Each item that follows carries a reported pIC50.
Target: GST-Aurora A (Homo sapiens)
Construct: N-terminal GST fusion with full length Aurora A (1-403 amino acids)
Sequence (O14965 1-403): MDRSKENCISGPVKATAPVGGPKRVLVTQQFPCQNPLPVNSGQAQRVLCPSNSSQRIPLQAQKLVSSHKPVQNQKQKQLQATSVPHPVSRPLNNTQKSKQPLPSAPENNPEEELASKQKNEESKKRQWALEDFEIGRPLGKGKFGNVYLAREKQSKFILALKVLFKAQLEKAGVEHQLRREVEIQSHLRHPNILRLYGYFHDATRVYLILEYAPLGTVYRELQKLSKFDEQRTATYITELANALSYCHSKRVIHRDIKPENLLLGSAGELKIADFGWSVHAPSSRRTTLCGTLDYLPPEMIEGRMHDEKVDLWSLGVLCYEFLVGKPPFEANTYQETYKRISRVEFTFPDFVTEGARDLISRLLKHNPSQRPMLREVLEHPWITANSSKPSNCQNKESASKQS
Test: Aurora A IC50, Caliper LC3000 mobility shift assay
Conditions: LC3000 method; 15 uM ATP (the KM value); read-out: Aurora Kinase A Activity (IC50)
pIC50: −log10 of the molar value.

Here are 3 compounds together with their reported answers.
[
  {
    "compound": "COc1ccccc1CNc1ccc2c(=O)[nH]c3ncccc3c2c1 [Example 34]",
    "measuredTarget": "GST-Aurora A (Homo sapiens)",
    "quantityMeasured": "pIC50",
    "result": "< 7.00"
  },
  {
    "compound": "CC(C(=O)Nc1ccccc1)N1CCC(Nc2ccnc3[nH]c(=O)c4ccccc4c23)CC1 (stereo not shown) [Compound 287]",
    "measuredTarget": "GST-Aurora A (Homo sapiens)",
    "quantityMeasured": "pIC50",
    "result": "< 7.00"
  },
  {
    "compound": "O=C(Nc1ccc(Nc2ccnc3[nH]c(=O)c4ccccc4c23)cc1)C1(C(F)(F)F)CCCC1 [Compound 500]",
    "measuredTarget": "GST-Aurora A (Homo sapiens)",
    "quantityMeasured": "pIC50",
    "result": "7.00 to 7.96"
  }
]

Q: Any idea what pIC50 was measured for CN(C)CCCNC(=O)c1cccc2c1c(=O)[nH]c1nccc(Nc3ccc(NC(=O)c4ccccc4)cc3)c12 [Compound 436] ?
Result: 7.00 to 7.96

###

Target: CHK2 (Homo sapiens, UniProt O96017)
Construct: purchased Caliper Life Sciences
Sequence (O96017 whole entry, species assumed): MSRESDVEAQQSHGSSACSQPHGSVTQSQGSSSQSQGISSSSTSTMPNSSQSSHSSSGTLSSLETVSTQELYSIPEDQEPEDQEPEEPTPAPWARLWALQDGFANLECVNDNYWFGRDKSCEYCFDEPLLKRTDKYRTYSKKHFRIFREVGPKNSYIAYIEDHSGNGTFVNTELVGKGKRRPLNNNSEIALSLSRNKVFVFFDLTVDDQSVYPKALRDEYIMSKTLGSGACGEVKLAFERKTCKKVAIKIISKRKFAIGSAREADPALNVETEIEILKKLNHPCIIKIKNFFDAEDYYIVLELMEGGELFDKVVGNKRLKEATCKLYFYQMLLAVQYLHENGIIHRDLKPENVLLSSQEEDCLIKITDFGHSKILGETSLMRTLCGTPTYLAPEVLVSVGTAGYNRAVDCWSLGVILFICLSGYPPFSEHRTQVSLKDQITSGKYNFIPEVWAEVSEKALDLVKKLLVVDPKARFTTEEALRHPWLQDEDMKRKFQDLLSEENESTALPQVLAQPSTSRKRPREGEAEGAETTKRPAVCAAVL
Experiment: Desktop Profiler kinase panel, CHK2
Assay type: biochemical
Settings: 10 micromolar concentration of the compound; read-out: Percent Inhibition CHK2
Documented inhibition at 10 µM across a set of compounds

// solved cases for inhibition at 10 µM follow
[
  {
    "compoundString": "COc1ccc(Nc2ccnc3[nH]c(=O)c4ccccc4c23)cc1",
    "inhibition at 10 µM": "70 to 90%"
  },
  {
    "compoundString": "O=c1[nH]c2ncccc2c2cc(Nc3cccc(F)c3)ccc12",
    "inhibition at 10 µM": "50 to 70%"
  },
  {
    "compoundString": "O=c1[nH]c2nccc(NCc3ccccc3)c2c2ccccc12",
    "inhibition at 10 µM": "50 to 70%"
  },
  {
    "compoundString": "NC(=O)c1ccc(Oc2ccc3c(=O)[nH]c4ncccc4c3c2)cc1",
    "inhibition at 10 µM": "50 to 70%"
  }
]

Kindly review the next compound as well.
Q: Notebook: pull reported inhibition at 10 µM for CHK2 (Homo sapiens, UniProt O96017), entry `COc1ccccc1Nc1ccnc2[nH]c(=O)c3ccccc3c12`
Result: 50 to 70%

###

Molecular target: GST-Aurora A (Homo sapiens)
Construct: N-terminal GST fusion with full length Aurora A (1-403 amino acids)
Experiment: Aurora A IC50, Caliper LC3000 mobility shift assay
Conditions: LC3000 method; 15 uM ATP (the KM value); read-out: Aurora Kinase A Activity (IC50)
quantityMeasured: IC50

Below, each entry is followed by its recorded IC50 result.
[
  {
    "compoundString": "O=C(Nc1ccc(Oc2ccnc3[nH]c(=O)c4ccccc4c23)cc1)c1ccccc1",
    "measuredTarget": "GST-Aurora A (Homo sapiens)",
    "IC50": "11 to 100 nM"
  },
  {
    "compoundString": "O=C(Nc1ccc(Nc2ccnc3[nH]c(=O)c4ccccc4c23)cc1)c1ccc(F)cc1",
    "measuredTarget": "GST-Aurora A (Homo sapiens)",
    "IC50": "< 11 nM"
  },
  {
    "compoundString": "O=C(Nc1ccc(CNc2ccnc3[nH]c(=O)c4ccccc4c23)cc1)c1cc(F)cc(F)c1",
    "measuredTarget": "GST-Aurora A (Homo sapiens)",
    "IC50": "11 to 100 nM"
  }
]

Q: Find the measured IC50: item `O=c1[nH]c2ncccc2c2cc(NCc3cc(C(F)(F)F)ccc3C(F)(F)F)ccc12` , target or system GST-Aurora A (Homo sapiens).
Result: > 100 nM
